# credit: patent US20260242735A1

Listed next: entries and their corresponding Mean % WT Binding.
Target: human CD33 A272S (human, UniProt P20138 18-364)
Sequence (P20138 18-364 A272S limits assumed): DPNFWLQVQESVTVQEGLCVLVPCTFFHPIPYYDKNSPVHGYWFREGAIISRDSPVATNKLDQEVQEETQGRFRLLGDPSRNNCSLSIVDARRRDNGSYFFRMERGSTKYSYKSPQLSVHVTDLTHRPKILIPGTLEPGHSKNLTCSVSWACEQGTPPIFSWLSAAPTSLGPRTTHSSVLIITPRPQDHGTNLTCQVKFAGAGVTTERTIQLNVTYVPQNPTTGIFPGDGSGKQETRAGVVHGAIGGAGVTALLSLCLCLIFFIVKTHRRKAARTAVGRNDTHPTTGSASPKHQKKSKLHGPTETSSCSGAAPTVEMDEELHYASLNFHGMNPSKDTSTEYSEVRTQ
Assay: alanine scan, flow cytometry, HEK293-T;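 note: antibody binding to each alanine-substituted CD33 mutant expressed transiently in HEK293-T, read as fluorescence minus background, mean of duplicates, relative to wild-type CD33 set as 100%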
I only need the number, in % WT binding, no unit after it.

The following binders have reported results that may help.
- Refmab #3 (antibody, V domains shown, The alanine scan used IgG or Fab) VH: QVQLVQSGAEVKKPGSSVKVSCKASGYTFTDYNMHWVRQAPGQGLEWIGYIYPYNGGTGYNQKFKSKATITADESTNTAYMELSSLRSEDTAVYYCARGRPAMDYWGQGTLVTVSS VL: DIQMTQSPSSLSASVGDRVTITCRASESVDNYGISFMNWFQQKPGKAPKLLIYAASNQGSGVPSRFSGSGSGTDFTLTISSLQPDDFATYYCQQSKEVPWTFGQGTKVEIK: 105
- Refmab #2 (antibody, V domains shown, The alanine scan used IgG or Fab) VH: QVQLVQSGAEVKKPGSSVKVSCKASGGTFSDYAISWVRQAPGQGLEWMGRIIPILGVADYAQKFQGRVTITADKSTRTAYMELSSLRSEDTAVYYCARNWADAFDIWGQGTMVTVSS VL: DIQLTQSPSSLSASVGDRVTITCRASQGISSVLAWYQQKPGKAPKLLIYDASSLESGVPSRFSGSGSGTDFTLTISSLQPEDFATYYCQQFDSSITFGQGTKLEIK: 110

Incoming: // query Mean % WT Binding value for entry Refmab #4 (antibody, V domains shown, The alanine scan used IgG or Fab) VH: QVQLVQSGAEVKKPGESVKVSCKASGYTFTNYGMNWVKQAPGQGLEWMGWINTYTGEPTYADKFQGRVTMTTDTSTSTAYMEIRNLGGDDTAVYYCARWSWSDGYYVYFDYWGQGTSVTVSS VL: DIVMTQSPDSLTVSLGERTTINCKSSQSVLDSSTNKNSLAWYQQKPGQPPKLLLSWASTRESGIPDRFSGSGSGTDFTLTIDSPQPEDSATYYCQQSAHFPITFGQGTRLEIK
Outgoing: 107
